B1: H2-Kb / B6 (parent)
chain 1: GDSVTQTEGLVTVTEGLPVKLNCTYQTTYLTIAFFWYVQYLNEAPQVLLKSSTDNKRTEHQGFHATLHKSSSSFHLQKSSAQLSDSALYYCALSLGNAGAKLTFGGGTRLTVRP
chain 2: EAAVTQSPRNKVTVTGGNVTLSCRQTNSHNYMYWYRQDTGHGLRLIHYSYGAGNLQIGDVPDGYKATRTTQEDFFLLLELASPSQTSLYFCASSDGMISSSYEQYFGPGTRLTVL
chain 3: not shown
chain 4: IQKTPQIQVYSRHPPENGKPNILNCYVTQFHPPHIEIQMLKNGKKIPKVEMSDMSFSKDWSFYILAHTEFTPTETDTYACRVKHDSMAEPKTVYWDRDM
chain 5: SIINFEKL

- Variants of: B1
- method.summary: % of reporter cells activated (NFAT-GFP), raw; also: test concentration or dose not given here
- Design: unit not given here
- test.conditions: with B6
recorded.metric: ratio to parent

Worked cases, ratio to parent given:
[
  {
    "mutation.name": "chain 5 I2S",
    "ratio to parent": 0.987
  },
  {
    "mutation.name": "chain 5 I2C",
    "ratio to parent": 1.18
  },
  {
    "mutation.name": "chain 5 I2N",
    "ratio to parent": 1.2
  },
  {
    "mutation.name": "chain 5 L8Q",
    "ratio to parent": 0.738
  },
  {
    "mutation.name": "chain 5 S1M",
    "ratio to parent": 0.973
  },
  {
    "mutation.name": "chain 5 S1I",
    "ratio to parent": 0.919
  },
  {
    "mutation.name": "chain 5 I3M",
    "ratio to parent": 1.13
  },
  {
    "mutation.name": "chain 5 S1E",
    "ratio to parent": 1.12
  },
  {
    "mutation.name": "chain 5 I3K",
    "ratio to parent": 0.98
  },
  {
    "mutation.name": "chain 5 N4G",
    "ratio to parent": 0.752
  }
]

(P) chain 5 I3L
(Q) chain 5 K7W
(R) chain 5 F5E
# input Order the records, beginning with the lowest ratio to parent and ending with the highest. // list labels; follow requested order
# output Q, P, R
(Q: 0.638, P: 1.11, R: 1.74)

(a) chain 5 I2D
(b) chain 5 K7N
# input Lower ratio to parent: a or b ? Lab log: write the label of the selected item as the result.
# output b
(b: 0.664, a: 1.07)

(1) chain 5 E6M
(2) chain 5 N4F
# input # returns the entry with the larger ratio to parent; inputs 1 and 2 Lab log: write the label of the selected item as the result.
# output 2
(2: 1.87, 1: 0.946)

(1) chain 5 L8Y
(2) chain 5 I3A
# input Lower ratio to parent: 1 or 2 ? Lab log: write the label of the selected item as the result.
# output 1
(1: 0.805, 2: 1.17)

This collection of values is drawn from paper PMC11480844.
